For each entry below, report its solubility value.
# protocol.notes: Water solubility (H2O sol)
# recorded.conditions: H2O sol
Counter-ions that a name gives are not always drawn.
Number in mg/mL, nothing else.

### Prompt Fill in: solubility of COC(=O)[C@H](COC(=O)O[C@H]1CC[C@H]2[C@@H]3CCC4=CC(=O)CC[C@]4(C)[C@H]3CC[C@]12C)N(C)C [Code 3.6, hydrochloride salt] is ___
### Response 20

### Prompt Any idea what solubility was measured for C[C@]12CC[C@H]3[C@@H](CCC4=CC(=O)CC[C@@]43C)[C@@H]1CC[C@@H]2OC(=O)[C@@H]1CCC[N+]1(C)C ?
### Response 22

### Prompt GET /values?readout=solubility&item= C[C@]12CC[C@H]3[C@@H](CCC4=CC(=O)CC[C@@]43C)[C@@H]1CC[C@@H]2OC(=O)C=CC[N+](C)(C)C
### Response 21

### Prompt // query solubility value for entry C[n+]1ccccc1C(=O)O[C@H]1CC[C@H]2[C@@H]3CCC4=CC(=O)CC[C@]4(C)[C@H]3CC[C@]12C
### Response 0.9

### Prompt What value of solubility has been reported for the following compound? CCCCCCCCCCCCCCCC(=O)O[C@H](CC(=O)O[C@H]1CC[C@H]2[C@@H]3CCC4=CC(=O)CC[C@]4(C)[C@H]3CC[C@]12C)C[N+](C)(C)C
### Response 26

### Prompt Name the recorded solubility for C[C@]12CC[C@H]3[C@@H](CCC4=CC(=O)CC[C@@]43C)[C@@H]1CC[C@@H]2OC(=O)OCOC(=O)CCCCC[N+](C)(C)C .
### Response 20

### Prompt // query solubility value for entry C[n+]1cccc(C(=O)O[C@H]2CC[C@H]3[C@@H]4CCC5=CC(=O)CC[C@]5(C)[C@H]4CC[C@]23C)c1
### Response 0.8

### Prompt Query: solubility; subject: CN(C)CCCC(=O)O[C@H]1CC[C@H]2[C@@H]3CCC4=CC(=O)CC[C@]4(C)[C@H]3CC[C@]12C [Code 3.1, hydrochloride salt]
### Response 22

### Prompt Value lookup for solubility; key = C[C@]12CC[C@H]3[C@@H](CCC4=CC(=O)CC[C@@]43C)[C@@H]1CC[C@@H]2OC(=O)CCCC[N+](C)(C)C
### Response 18

### Prompt Name the reported solubility value associated with the compound CC(=O)O[C@@H]1C[C@@H](C(=O)O[C@H]2CC[C@H]3[C@@H]4CCC5=CC(=O)CC[C@]5(C)[C@H]4CC[C@]23C)[N+](C)(C)C1
### Response 21
